- studySystem: GDP-bound KRAS protein (aa 1-169), containing both G12D and C118A amino acid substitutions (Homo sapiens, UniProt P01116, C118A/G12D)
- Sequence (P01116 1-169 isoform P01116-2 G12D/C118A): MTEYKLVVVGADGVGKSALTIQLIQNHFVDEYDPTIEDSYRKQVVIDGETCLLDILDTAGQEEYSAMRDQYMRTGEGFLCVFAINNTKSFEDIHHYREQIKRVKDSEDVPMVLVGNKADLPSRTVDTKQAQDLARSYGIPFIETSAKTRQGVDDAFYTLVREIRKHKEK
- testDescription: KRAS G12D Coupled Nucleotide Exchange Assay
- Format: biochemical
- cond: 2 h compound pre-incubation
Threshold check on Avg 2 h Coupled Exchange IC50: at or above 6 nM gives fulfilled, strictly below gives not fulfilled.

[[record]]
structureassmiles = "Cc1ccc2[nH]ncc2c1-c1ccc2c(N3C[C@H]4CC[C@@H](C3)N4)nc(OC[C@@]34CCCN3C[C@H](F)C4)nc2c1F"
categorylabel = "fulfilled"

[[record]]
structureassmiles = "Fc1c(-c2cc(C(F)F)cc3ccccc23)ccc2c(N3C[C@H]4CC[C@@H](C3)N4)nc(OC[C@@]34CCCN3C[C@H](F)C4)nc12"
categorylabel = "fulfilled"

[[record]]
structureassmiles = "Oc1cc(-c2c(F)cc3c(N4C[C@H]5CC[C@@H](C4)N5)nc(OC[C@@]45CCCN4C[C@H](F)C5)nc3c2F)c2c(Cl)cccc2c1"
categorylabel = "fulfilled"

[[record]]
structureassmiles = "Oc1cc(-c2c(F)cc3c(N4C[C@@H]5CC[C@H]4CN5)nc(OC[C@@]45CCCN4C[C@H](F)C5)nc3c2F)c2c(F)c(F)ccc2c1"
categorylabel = "not fulfilled"

[[record]]
structureassmiles = "CC(C)(O)COc1nc(N2C[C@H]3CC[C@@H](C2)N3)c2cc(F)c(-c3cc(O)cc4ccccc34)c(F)c2n1"
categorylabel = "fulfilled"

[[record]]
structureassmiles = "C#Cc1cccc2cc(O)cc(-c3c(F)cc4c(N5C[C@H]6CC[C@@H](C5)N6)nc(OC[C@@]56CCCN5C[C@H](F)C6)nc4c3F)c12"
categorylabel = "not fulfilled"


Prompt line: For this compound, is measured Avg 2 h Coupled Exchange IC50 6 nM or higher? CN1C[C@H](F)C[C@H]1COc1nc(N2[C@@H]3CNC[C@H]2COC3)c2ccc(-c3cc(O)cc4ccccc34)c(F)c2n1
Response line: fulfilled

Provenance of the data: patent US20250059205A1
